- Protocol: folding enthalpy; higher = less favourable; fluorescence melt of hairpins on a sequencing array, two-state fit
- Stated conditions: sodium 0.088 M
Threshold check on folding enthalpy: at or above -20 kcal/mol gives True, strictly below gives False.

                           item_sequence  assigned_category
0  GTTACGGGAAACCATAAC ((((.((....)).))))               True
1  GCGGCCGAAAGGCCCCGC ((((((....)))..)))               True
2  GTTGGCGGAAACGTCAAC ((((.((....)).))))              False
3  GAGTTCGGAAACGAGTTC ((..(((....)))..))               True
4  GCGACCGAAAGGTGACGC ((((((....)))..)))              False
5  GATCGCCGAAAGGCAATC (((.(((....))).)))               True
